Just for reference, patent US10070645B2 is where these values come from.

- METHOD SUMMARY: log P by HPLC on a reversed-phase column (C 18), EEC Directive 79/831 Annex V.A8
- Assay type: physicochemical
- RECORDED CONDITIONS: reversed-phase HPLC column (C 18); Table 3 (amines of formula II); HPLC C 18, 40° C., 0.1% aqueous formic acid and acetonitrile
PROPERTY NAME: chromatographic logP

1) CCC1(c2cc(C)c(F)cc2CNC2CC2)CC1 ... 1.69
2) CC1(c2ccccc2CNC2CC2)CC1 ... 1.1
3) C#CC1(c2ccc(C)cc2CNC2CC2)CC1 ... 1.15
4) Cc1ccc(C2(C3CC3)CC2)c(CNC2CC2)c1 ... 1.67
5) FC(F)(F)C1(c2ccc(Cl)cc2CNC2CC2)CC1 ... 1.47
6) CC1(c2cc(Cl)c(Cl)cc2CNC2CC2)CC1 ... 1.79
7) Cc1ccc(C2(Cl)CC2)c(CNC2CC2)c1 ... 1.34
8) N#CC1(c2ccc(Cl)cc2CNC2CC2)CC1 ... 0.77
9) Cc1ccc(C2(C(F)F)CC2)c(CNC2CC2)c1 ... 1.09

----------
- METHOD SUMMARY: log P by HPLC on a reversed-phase column (C 18), EEC Directive 79/831 Annex V.A8
- Format: physicochemical
- RECORDED CONDITIONS: HPLC, reversed-phase column (C 18), 40° C., 0.1% aqueous formic acid and acetonitrile, linear gradient 10% to 90% acetonitrile
Here, each record is paired with measured logP data.
PROPERTY NAME: logP

1. Cn1nc(C(F)F)c(C(=O)N(Cc2c(Br)cccc2C2(C(F)F)CC2)C2CC2)c1F [I.155] ... 3.76
2. COC1(c2ccc(C)cc2CN(C(=O)c2c(C(F)F)nn(C)c2Cl)C2CC2)CC1 [I.123] ... 3.74
3. CCC1(c2ccc(C(F)(F)F)cc2CN(C(=O)c2c(C(F)F)nn(C)c2F)C2CC2)CC1 [I.108] ... 4.67
4. C=C(C)c1ccc(C2(OC)CC2)c(CN(C(=O)c2c(C(F)F)nn(C)c2F)C2CC2)c1 [I.127] ... 4.12
5. Cn1nc(C(F)F)c(C(=O)N(Cc2ccc(-c3ccc(F)c(F)c3)cc2C2(C)CC2)C2CC2)c1F [I.036] ... 5.03
6. Cn1nc(C(F)F)c(C(=O)N(Cc2ccc(-c3cccc(F)c3)cc2C2(C)CC2)C2CC2)c1F [I.038] ... 4.96
7. Cn1nc(C(F)F)c(C(=O)N(Cc2cc(Br)ccc2C2(C)CC2)C2CC2)c1Cl [I.057] ... 4.56
8. Cn1nc(C(F)F)c(C(=O)N(Cc2ccc(-c3ccc(F)cc3)cc2C2(C)CC2)C2CC2)c1F [I.041] ... 4.96

----------
- METHOD SUMMARY: log P by HPLC on a reversed-phase column (C 18), EEC Directive 79/831 Annex V.A8
- Format: physicochemical
- RECORDED CONDITIONS: HPLC, reversed-phase column (C 18), 40° C., 0.1% aqueous formic acid and acetonitrile, linear gradient 10% to 90% acetonitrile
Listed next: entries and their corresponding logP.
PROPERTY NAME: logP

1. COC1(c2ccc(C3=CCCC3)cc2CN(C(=O)c2c(C(F)F)nn(C)c2F)C2CC2)CC1 ... 4.76
2. CCOC1(c2ccc(C)cc2CN(C(=O)c2c(C(F)F)nn(C)c2Cl)C2CC2)CC1 ... 4.21
3. Cn1nc(C(F)F)c(C(=O)N(Cc2ccc(C3CC3)cc2C2(C)CC2)C2CC2)c1F ... 4.51
4. Cn1nc(C(F)F)c(C(=O)N(Cc2cccc(C3=CCCCC3)c2C2(C)CC2)C2CC2)c1F ... 5.59
5. Cn1nc(C(F)F)c(C(=O)N(Cc2cc(Br)ccc2C2(C)CC2)C2CC2)c1F ... 4.36
6. COC1(c2ccccc2CN(C(=O)c2c(C(F)F)nn(C)c2Cl)C2CC2)CC1 ... 3.42
7. Cn1nc(C(F)F)c(C(=O)N(Cc2ccc(-c3cccnc3)cc2C2(C)CC2)C2CC2)c1F ... 2.35
8. C#CC1(c2ccc(Cl)cc2CN(C(=O)c2c(C(F)F)nn(C)c2F)C2CC2)CC1 ... 3.73
9. COc1ccc(CN(C(=O)c2c(C(F)F)nn(C)c2Cl)C2CC2)c(C2(C)CC2)c1 ... 3.83
10. CCC1(c2cc(C)ccc2CN(C(=O)c2c(C(F)F)nn(C)c2Cl)C2CC2)CC1 ... 4.74

----------
- METHOD SUMMARY: log P by HPLC on a reversed-phase column (C 18), EEC Directive 79/831 Annex V.A8
- Type: physicochemical
- RECORDED CONDITIONS: HPLC on reversed-phase column (C 18), 40° C., 0.1% aqueous formic acid and acetonitrile, linear gradient 10% to 90% acetonitrile
Would you mind classing the entries by logP? Ranges: band A = under 4, band B = from 4 up to 5, band C = 5 and over

1. Cn1nc(C(F)F)c(C(=O)N(Cc2ccccc2C2(C(F)(F)F)CC2)C2CC2)c1Cl ... band A
2. Cn1nc(C(F)F)c(C(=O)N(Cc2ccccc2C2(C(F)(F)F)CC2)C2CC2)c1F ... band A
3. Cc1ccc(C2(C)CC2(Cl)Cl)c(CN(C(=O)c2c(C(F)F)nn(C)c2Cl)C2CC2)c1Cl (racemic) ... band B
4. Cc1ccc(C2(CC(C)C)CC2)c(CN(C(=O)c2c(C(F)F)nn(C)c2Cl)C2CC2)c1 ... band C
5. Cc1ccc(C2(C)CC2(Cl)Cl)c(CN(C(=O)c2c(C(F)F)nn(C)c2F)C2CC2)c1Cl (racemic) ... band B
6. Cn1nc(C(F)F)c(C(=O)N(Cc2c(C3(C)CC3(Cl)Cl)ccc(Cl)c2F)C2CC2)c1Cl (racemic) ... band B
7. Cn1nc(C(F)F)c(C(=O)N(Cc2cc(F)ccc2C2(C(F)(F)F)CC2)C2CC2)c1F ... band A
8. Cc1ccc(C2(C)CC2(Cl)Cl)c(CN(C(=O)c2c(C(F)F)nn(C)c2F)C2CC2)c1 (racemic) ... band B
9. Cn1nc(C(F)F)c(C(=O)N(Cc2c(C3(C)CC3(Cl)Cl)ccc(Cl)c2Cl)C2CC2)c1Cl (racemic) ... band B
10. Cn1nc(C(F)F)c(C(=O)N(Cc2c(C3(C)CC3(Cl)Cl)ccc(Cl)c2F)C2CC2)c1F (racemic) ... band B
11. Cc1ccc(C2(CC(C)C)CC2)c(CN(C(=O)c2c(C(F)F)nn(C)c2F)C2CC2)c1 ... band C
12. CC(C)CC1(c2cc(Cl)ccc2CN(C(=O)c2c(C(F)F)nn(C)c2Cl)C2CC2)CC1 ... band C
13. Cn1nc(C(F)F)c(C(=O)N(Cc2cc(Cl)ccc2C2(C(F)(F)F)CC2)C2CC2)c1Cl ... band B
14. Cn1nc(C(F)F)c(C(=O)N(Cc2cc(C3CC3)ccc2C2(C)CC2(Cl)Cl)C2CC2)c1F (racemic) ... band B
15. COCC1(c2ccc(C)cc2CN(C(=O)c2c(C(F)F)nn(C)c2F)C2CC2)CC1 ... band A
16. Cn1nc(C(F)F)c(C(=O)N(Cc2cc(F)ccc2C2(C)CC2(Cl)Cl)C2CC2)c1Cl (racemic) ... band B
17. Cn1nc(C(F)F)c(C(=O)N(Cc2c(C3(C)CC3(Cl)Cl)ccc(Cl)c2Cl)C2CC2)c1F (racemic) ... band B
18. Cn1nc(C(F)F)c(C(=O)N(Cc2cc(Cl)c(Cl)cc2C2(C)CC2)C2CC2)c1F ... band B

----------
- METHOD SUMMARY: log P by HPLC on a reversed-phase column (C 18), EEC Directive 79/831 Annex V.A8
- Format: physicochemical
- RECORDED CONDITIONS: HPLC, reversed-phase column (C 18), 40° C., 0.1% aqueous formic acid and acetonitrile, linear gradient 10% to 90% acetonitrile
PROPERTY NAME: logP

1) CCCC1(c2ccc(C)cc2CN(C(=O)c2c(C(F)F)nn(C)c2Cl)C2CC2)CC1 ... 5.19
2) C#CC1(c2ccc(Cl)cc2CN(C(=O)c2c(C(F)F)nn(C)c2Cl)C2CC2)CC1 ... 3.89
3) Cn1nc(C(F)F)c(C(=O)N(Cc2ccccc2C2(C)CC2)C2CC2)c1Cl ... 4.01
4) Cc1ccc(C2(C)CC2)c(CN(C(=S)c2c(C(F)F)nn(C)c2F)C2CC2)c1 ... 4.80
5) Cn1nc(C(F)F)c(C(=O)N(Cc2c(C3(C)CC3)ccc(Cl)c2Cl)C2CC2)c1F ... 4.51
6) Cn1nc(C(F)F)c(C(=S)N(Cc2cccc(F)c2C2(C)CC2)C2CC2)c1F ... 4.49
7) Cn1nc(C(F)F)c(C(=O)N(Cc2c(Br)cccc2C2(C(F)F)CC2)C2CC2)c1Cl ... 3.87
8) C=C(C)c1ccc(C2(C)CC2)c(CN(C(=O)c2c(C(F)F)nn(C)c2F)C2CC2)c1 ... 4.67
9) COc1ccc(CN(C(=O)c2c(C(F)F)nn(C)c2F)C2CC2)c(C2(C)CC2)c1 ... 3.69
